Biological target: T1, human RANK-L (human, UniProt O14788 140-317, limits assumed)
T1 construct: Soluble protein, used coated, biotinylated or labelled in ELISA, AlphaScreen, FMAT and Biacore; also called hRANK-L; soluble human RANK-L
T1 sequence (looked up): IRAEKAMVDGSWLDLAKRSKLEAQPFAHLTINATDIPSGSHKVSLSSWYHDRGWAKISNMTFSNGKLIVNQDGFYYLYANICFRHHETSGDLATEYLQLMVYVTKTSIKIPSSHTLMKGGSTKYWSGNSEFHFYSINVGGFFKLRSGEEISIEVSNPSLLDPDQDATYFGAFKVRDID
Assay: AlphaScreen, biotin-hRANK-L / RANK-huFc beads
Readout type: IC50 (pM)
# number only, unit pM dropped from output

Please report the recorded IC50 for RANKL23 (VHH, also called 9H5; not shown: c-myc and His6 tags) VHH: EVQLVESGGGLVQAGGSLRLSCAASGLTTVYTMAWFRQAPGKEREFVAAITRSGKTTYYADSVKGRFTISRDNAKNTVNLQMNSLKPDDTAVYYCAAKALLGMTNPAGYEYWGQETQVTVSS .
3530

What about this binder? RANKL17 (VHH, not shown: c-myc and His6 tags) VHH: EVQLVESGGGLVQVGDSLRLSCEASGRSRFSTYVMGWFRQAPGKEREFVAAVSWSSGNAYYIDSAKGRFATSRDTAKNIMYLQMNSLKPEDTAVYTCAAGRGYGLLSEYTQAPRYDYWGQGTQVTVSS
737

What about this binder? RANKL8 (VHH, not shown: c-myc and His6 tags) VHH: EVQLVESGGGSVQPGGSLRLSCAASGGTFSRYAMGWFRQAPGKEREFVSAISVGGTYQYYVDSVKGRFTISRDNAESTVYLQMNSLKPEDTAVYYCAGDASPYGYLREYTATRFDYWGQGTQVTVSS
755

What about this binder? RANKL9 (VHH, not shown: c-myc and His6 tags) VHH: EVQLVESGGGLVQAGGSLRLTCAASGRTFRSYAMGWFRQAPGKEREFVAAINYSGGSTNYADSVKGRFTISRDNAKNTLYLQMNSLEPEDTAVYYCAAGSGYASLSYYSTERAYTYWGQGTQVTVSS
137

What about this binder? RANKL3 (VHH, not shown: small tags and cut ends) VHH: EVQLVESGGKLVQAGGSLRLSCAVSGRTSSIYNMAWFRQGPGKGRESVGRIYWSDDNTYYADSVKGRFTISRDNATNTVYLQMNSLKPEDTAVYYCAGKTTKWSLEYDYWGQGTQVTVSS
497

What about this binder? RANKL13 (VHH, not shown: small tags and cut ends) VHH: EVQLVESGGGLVQAGGSLRLSCAASGRTFRSYPMGWFRQAPGKEREFVASITGSGGSTYYADSVKGRFTISRDNAKNTVYLQMNSLRPEDTAVYSCAAYIRPDTYLSRDYRKYDYWGQGTQVTVSS
185

What about this binder? RANKL15 (VHH, not shown: small tags and cut ends) VHH: EVQLVESGGGLVQAGGSLRLSCAAAGGTFRNYVMGWFRQAPGKEREFVTAISTGGSWTGYVDSVKDRFTISRDNTKNTVYLQMASLKPEDTAVYYCAATTPATTYLPRSERQYDYWGQGTQVTVSS
283

Further cases:
Please report the recorded IC50 for RANKL6 (VHH, not shown: c-myc and His6 tags) VHH: EVQLVESGGGLMQTGGSLRLSCAASGVTYSYYTASWFRQAPGKEREFVAAISPSGNTYYADSVKGRFTISRDNGKHTMYLQMNSLNPEDTAVYFCAIRATDSIYYASSYRHWGQGTQVTVSS .
288
